# EXPERIMENTAL TARGET: CDK2 CCNE1 (human) (UniProt P24941+P24864)
# Sequence (P24864 whole entry, looked up, other chains not shown): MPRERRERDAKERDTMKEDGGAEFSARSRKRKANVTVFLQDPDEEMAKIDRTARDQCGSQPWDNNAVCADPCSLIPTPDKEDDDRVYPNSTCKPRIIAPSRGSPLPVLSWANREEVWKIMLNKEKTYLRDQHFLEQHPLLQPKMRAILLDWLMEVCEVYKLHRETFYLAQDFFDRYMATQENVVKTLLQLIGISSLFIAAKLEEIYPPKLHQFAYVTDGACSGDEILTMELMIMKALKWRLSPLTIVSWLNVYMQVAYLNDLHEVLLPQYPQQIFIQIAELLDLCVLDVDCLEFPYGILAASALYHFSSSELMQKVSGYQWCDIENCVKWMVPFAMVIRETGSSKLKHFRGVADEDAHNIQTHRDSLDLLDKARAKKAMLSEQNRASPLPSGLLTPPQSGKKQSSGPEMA
# TEST NAME: radiometric filter-binding kinase assay, Kinase HotSpot
# MEASUREMENT CONTEXT: compound 0.5 µM; ATP 10 µM
MEASUREMENT TYPE: residual activity
Entry format: amount then unit.

Solved cases below.
O=C1Nc2ccccc2/C1=C\c1c(Cl)[nH]c2ccccc12 :: 79.9%
COc1cc2nccc(Oc3ccc(NC(=S)NC(=O)c4ccccc4C)cc3)c2cc1OC :: 96.7%
COc1ccc(-c2cnc3c(-c4ccsc4)cnn3c2)cc1 :: 82.8%

The value of residual activity measured for the compound CSc1nc(-c2ccc(F)cc2)c(-c2ccnc(NC(C)c3ccccc3)c2)[nH]1 (configuration not stated) turned out to be 88%

The value of residual activity measured for the compound O=C(NC(NC(=S)Nc1ccc(F)c([N+](=O)[O-])c1)C(Cl)(Cl)Cl)C(c1ccccc1)c1ccccc1 (configuration not stated) turned out to be 89.2%

The value of residual activity measured for the compound CCCNC(=O)Nc1ccc(Oc2ncnc3cc(OC)c(OC)cc23)cc1Cl turned out to be 95.2%

The value of residual activity measured for the compound O=c1cc(N2CCNCC2)oc2c(-c3ccccc3)cccc12 turned out to be 91.6%

The value of residual activity measured for the compound C#Cc1cccc(Nc2ncnc3cc(OCCOC)c(OCCOC)cc23)c1 turned out to be 96.5%
